System: Escherichia coli TOP10
Assay: shrunken log2 fold change of peptide-encoding DNA abundance (4.5 h post-induction vs induction); higher = less antimicrobial activity (less host growth inhibition)
Conditions: time post-induction: 4.5 h; library: site-saturation at positions 5, 18, 19, 20
We use 0.3 as the dividing line for shrunken log2 fold change: on or above the line is t, below is f.

Look over these answered cases.
{"Query sequence": "RRIRIRPPRLPRPRPRPITPPRP", "Group": "f"}
{"Query sequence": "RRIRARPPRLPRPRPRPPREPRP", "Group": "t"}
{"Query sequence": "RRIRDRPPRLPRPRPRPVKPPRP", "Group": "f"}
{"Query sequence": "RRIRFRPPRLPRPRPRPRWDPRP", "Group": "f"}
{"Query sequence": "RRIRMRPPRLPRPRPRPVCTPRP", "Group": "t"}
{"Query sequence": "RRIRYRPPRLPRPRPRPWPDPRP", "Group": "f"}
{"Query sequence": "RRIRKRPPRLPRPRPRPAIRPRP", "Group": "f"}

We now examine a further sequence.
Incoming: Does the sequence RRIRDRPPRLPRPRPRPMDDPRP have recorded shrunken log2 fold change that is 0.3 or more?
Outgoing: f

---

Test system: Escherichia coli TOP10
Experiment: shrunken log2 fold change of peptide-encoding DNA abundance (4.5 h post-induction vs induction); higher = less antimicrobial activity (less host growth inhibition)
Details: time post-induction: 4.5 h; library: site-saturation at positions 5, 18, 19, 20
Measured metric: shrunken log2 fold change
Form: value (number only, do not type unit).

{"Query sequence": "RRIRVRPPRLPRPRPRPNGHPRP", "Tgt": "Escherichia coli TOP10", "shrunken log2 fold change": -0.0787}
{"Query sequence": "RRIRSRPPRLPRPRPRPVEWPRP", "Tgt": "Escherichia coli TOP10", "shrunken log2 fold change": 0.31}

Incoming: GET /values?readout=shrunken log2 fold change&item= RRIRIRPPRLPRPRPRPEFYPRP
Outgoing: -0.333

Incoming: GET /values?readout=shrunken log2 fold change&item= RRIRRRPPRLPRPRPRPWRAPRP
Outgoing: 0.181

Incoming: GET /values?readout=shrunken log2 fold change&item= RRIRCRPPRLPRPRPRPRGDPRP
Outgoing: 0.867

Incoming: GET /values?readout=shrunken log2 fold change&item= RRIRARPPRLPRPRPRPYMFPRP
Outgoing: -0.262

Incoming: GET /values?readout=shrunken log2 fold change&item= RRIRCRPPRLPRPRPRPFLTPRP
Outgoing: -0.565

Incoming: GET /values?readout=shrunken log2 fold change&item= RRIRFRPPRLPRPRPRPWRQPRP
Outgoing: -0.103

---

Test system: Escherichia coli TOP10
Assay: shrunken log2 fold change of peptide-encoding DNA abundance (4.5 h post-induction vs induction); higher = less antimicrobial activity (less host growth inhibition)
Conditions: time post-induction: 4.5 h; library: site-saturation at positions 5, 18, 19, 20
Measured metric: shrunken log2 fold change

Take a look at these entries with their results.
{"Query sequence": "RRIRWRPPRLPRPRPRPHMGPRP", "Tgt": "Escherichia coli TOP10", "shrunken log2 fold change": 0.0771}
{"Query sequence": "RRIRTRPPRLPRPRPRPIQQPRP", "Tgt": "Escherichia coli TOP10", "shrunken log2 fold change": -0.229}

Incoming: GET /values?readout=shrunken log2 fold change&item= RRIRYRPPRLPRPRPRPNHGPRP
Outgoing: -0.0102

Incoming: GET /values?readout=shrunken log2 fold change&item= RRIRVRPPRLPRPRPRPDFSPRP
Outgoing: -0.373

Incoming: GET /values?readout=shrunken log2 fold change&item= RRIRDRPPRLPRPRPRPFFPPRP
Outgoing: 0.0715

Incoming: GET /values?readout=shrunken log2 fold change&item= RRIRVRPPRLPRPRPRPVPKPRP
Outgoing: 0.128

---

Entries and their shrunken log2 fold change
Tested on: Escherichia coli TOP10
Experiment: shrunken log2 fold change of peptide-encoding DNA abundance (4.5 h post-induction vs induction); higher = less antimicrobial activity (less host growth inhibition)
Conditions: time post-induction: 4.5 h; library: site-saturation at positions 5, 18, 19, 20
Form: value (number only, do not type unit).

Take a look at these entries with their results.
{"Query sequence": "RRIRCRPPRLPRPRPRPQHCPRP", "Tgt": "Escherichia coli TOP10", "shrunken log2 fold change": -0.287}
{"Query sequence": "RRIRIRPPRLPRPRPRPWYNPRP", "Tgt": "Escherichia coli TOP10", "shrunken log2 fold change": -0.343}
{"Query sequence": "RRIRGRPPRLPRPRPRPYETPRP", "Tgt": "Escherichia coli TOP10", "shrunken log2 fold change": 0.16}
{"Query sequence": "RRIRSRPPRLPRPRPRPIGCPRP", "Tgt": "Escherichia coli TOP10", "shrunken log2 fold change": -0.144}
{"Query sequence": "RRIRARPPRLPRPRPRPFIPPRP", "Tgt": "Escherichia coli TOP10", "shrunken log2 fold change": -0.492}

Incoming: Provide the documented shrunken log2 fold change with Escherichia coli TOP10 as the system for RRIRSRPPRLPRPRPRPTQAPRP
Outgoing: 0.0131

Incoming: Provide the documented shrunken log2 fold change with Escherichia coli TOP10 as the system for RRIRWRPPRLPRPRPRPEKYPRP
Outgoing: -0.357

Incoming: Provide the documented shrunken log2 fold change with Escherichia coli TOP10 as the system for RRIRVRPPRLPRPRPRPFVHPRP
Outgoing: -0.17

Incoming: Provide the documented shrunken log2 fold change with Escherichia coli TOP10 as the system for RRIRSRPPRLPRPRPRPIFQPRP
Outgoing: -0.0307

Incoming: Provide the documented shrunken log2 fold change with Escherichia coli TOP10 as the system for RRIRVRPPRLPRPRPRPGNAPRP
Outgoing: 0.133

Incoming: Provide the documented shrunken log2 fold change with Escherichia coli TOP10 as the system for RRIRCRPPRLPRPRPRPPWTPRP
Outgoing: 0.224

Incoming: Provide the documented shrunken log2 fold change with Escherichia coli TOP10 as the system for RRIRVRPPRLPRPRPRPHIWPRP
Outgoing: -0.244

Incoming: Provide the documented shrunken log2 fold change with Escherichia coli TOP10 as the system for RRIRHRPPRLPRPRPRPCQGPRP
Outgoing: -0.00822

Incoming: Provide the documented shrunken log2 fold change with Escherichia coli TOP10 as the system for RRIRWRPPRLPRPRPRPNYFPRP
Outgoing: -0.167

Incoming: Provide the documented shrunken log2 fold change with Escherichia coli TOP10 as the system for RRIRKRPPRLPRPRPRPAWSPRP
Outgoing: 0.202

---

System: Escherichia coli TOP10
Assay: shrunken log2 fold change of peptide-encoding DNA abundance (4.5 h post-induction vs induction); higher = less antimicrobial activity (less host growth inhibition)
Conditions: time post-induction: 4.5 h; library: site-saturation at positions 5, 18, 19, 20
We use -0.1 as the dividing line for shrunken log2 fold change: on or above the line is TRUE, below is FALSE.

Look over these answered cases.
{"Query sequence": "RRIRCRPPRLPRPRPRPSEDPRP", "Group": "FALSE"}
{"Query sequence": "RRIRQRPPRLPRPRPRPFKDPRP", "Group": "FALSE"}
{"Query sequence": "RRIRVRPPRLPRPRPRPPKWPRP", "Group": "TRUE"}

Incoming: Does the sequence RRIRLRPPRLPRPRPRPPTRPRP have recorded shrunken log2 fold change that is -0.1 or more?
Outgoing: TRUE

Incoming: Does the sequence RRIRGRPPRLPRPRPRPKMNPRP have recorded shrunken log2 fold change that is -0.1 or more?
Outgoing: TRUE

---

Tested on: Escherichia coli TOP10;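 further: peptides expressed intracellularly from a pBAD plasmid library in pooled LB shake-flask culture, induced with 0.3% L-arabinose, DNA abundance read by NGS, three biological replicates, DESeq2 with apeglm shrinkage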
Experiment: shrunken log2 fold change of peptide-encoding DNA abundance (4.5 h post-induction vs induction); higher = less antimicrobial activity (less host growth inhibition)
Conditions: time post-induction: 4.5 h; library: site-saturation at positions 5, 18, 19, 20
Measured metric: shrunken log2 fold change
Form: value (number only, do not type unit).

Take a look at these entries with their results.
{"Query sequence": "RRIRPRPPRLPRPRPRPVVCPRP", "shrunken log2 fold change": 0.53}
{"Query sequence": "RRIRPRPPRLPRPRPRPRPLPRP", "shrunken log2 fold change": 0.627}
{"Query sequence": "RRIRKRPPRLPRPRPRPSKNPRP", "shrunken log2 fold change": 0.219}

Incoming: GET /values?readout=shrunken log2 fold change&item= RRIRARPPRLPRPRPRPHREPRP
Outgoing: 0.0826

Incoming: GET /values?readout=shrunken log2 fold change&item= RRIRWRPPRLPRPRPRPAWCPRP
Outgoing: 0.469

Incoming: GET /values?readout=shrunken log2 fold change&item= RRIRDRPPRLPRPRPRPLQYPRP
Outgoing: -0.373

Incoming: GET /values?readout=shrunken log2 fold change&item= RRIRLRPPRLPRPRPRPLRIPRP
Outgoing: -0.031

Incoming: GET /values?readout=shrunken log2 fold change&item= RRIRARPPRLPRPRPRPRCAPRP
Outgoing: 0.716
